experiment: small-molecule microarray binders of probe aWnt5a, primary screen, biochemical, biotinylated probe, 635/667 nm fluorescence (AID 1113); details: higher = more signal;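 further: score merges 667 nm fluorescence intensity with signal-to-noise per printed feature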

{"molecule": "O=C1C=C[C@@H](O)[C@@H]2[C@@H]3C(=O)N(C[C@@H]4CCCO4)C(=O)[C@@H]3CC[C@@H]12", "composite z-score": -0.124}
{"molecule": "Cc1ccc(S(=O)(=O)N[C@H]2COC(=O)CC=C[C@@H](C)COC(=O)CC=C[C@@H]2C)cc1", "composite z-score": -0.12}
{"molecule": "CCC1=NOC(CCC2CC(OC(=O)NCc3cccc4c3OCO4)CC3(CCCC(COC(=O)NCCc4ccccc4OC)O3)O2)C1 (stereo unspecified)", "composite z-score": -0.139}
{"molecule": "C[C@H]1Cc2c(COc3ccccc3)nc3c(c2CO1)CN(CCOc1ccccc1)CC3", "composite z-score": -0.172}
{"molecule": "CC(=O)OC[C@H]1O[C@@H](ON=C(C)CCN2CCCc3nc(C)c(C)cc32)[C@H](OC(C)=O)[C@@H](OC(C)=O)[C@@H]1OC(C)=O", "composite z-score": -0.117}
{"molecule": "CCCCC#C[C@@H]1C=C[C@H](Oc2ccc(C(=O)OC)cc2)[C@@H](COC(=O)OCC)O1", "composite z-score": -0.0735}
{"molecule": "CO[C@H]1COC(=O)CCC[C@@H](C)[C@H](OC)COC(=O)[C@@H](C)NC(=O)CC=C[C@@H]1C", "composite z-score": -0.117}
{"molecule": "CCOC(=O)[C@H](CC(C)C)NC(=O)CCC1CC(OC(=O)NCc2cccc3ccccc23)CC2(CCCC(COC(=O)NCc3ccncc3)O2)O1 (stereo partly specified)", "composite z-score": 0.0037}
{"molecule": "CO[C@H]1COC(=O)CC=C[C@@H](C)[C@H](NS(=O)(=O)c2ccc(C)cc2)COC(=O)CCC[C@@H]1C", "composite z-score": -0.154}
{"molecule": "CC(C)=CCCC(C)=CCON=C1C[C@@H](O)[C@@H](O)[C@@H]2[C@@H]3C(=O)N(Cc4ccccc4)C(=O)[C@@H]3CC[C@H]12", "composite z-score": -0.164}
{"molecule": "CC(C)=CCCC(C)=CCON=C1C[C@@H](O)[C@@H](O)[C@@H]2[C@@H]3C(=O)N(C(C)(C)C)C(=O)[C@@H]3CC[C@@H]12", "composite z-score": -0.0203}
{"molecule": "C[C@H]1COC(=O)[C@@H]2CCCN2C(=O)[C@@H](C)COC(=O)[C@H](Cc2ccccc2)NC1=O", "composite z-score": -0.124}
{"molecule": "COc1cccc([C@H]2Oc3ccc(OC)cc3C(=NO[C@H](C)c3cn([C@H](CO)Cc4ccccc4)nn3)[C@@H]2O)c1", "composite z-score": -0.175}
{"molecule": "CO[C@H]1COC(=O)[C@@H](C)COC(=O)[C@H](C)NC(=O)CC=C[C@H]1C", "composite z-score": -0.178}
{"molecule": "C=CC1=C[C@H](O)[C@@H]2O[C@@H]2C12OCCCO2", "composite z-score": -0.105}
{"molecule": "COCOc1ccc(Br)cc1C(=O)[C@@H]1O[C@H]1c1cccc(OC)c1", "composite z-score": -0.148}
